B1: library; numbered along this chain (parent)
chain: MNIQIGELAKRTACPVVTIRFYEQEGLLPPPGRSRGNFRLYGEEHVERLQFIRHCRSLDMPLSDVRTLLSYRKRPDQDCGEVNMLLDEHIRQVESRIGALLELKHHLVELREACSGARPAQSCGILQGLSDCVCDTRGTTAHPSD

Variants of: B1
Assay: sfGFP reporter fluorescence (15 h) (µM FITC); higher = stronger transcriptional activation
Conditions: library round: Round 0; ligand: 30 µM Zn
// Criterion not met strictly below 0.07 in sfGFP reporter fluorescence; Criterion met otherwise

Example entries and their recorded answers appear below.
MUTATION_KEY	DISCRETE_LABEL
L58K	Criterion met
V46G	Criterion met
Q4A	Criterion met
P61N L107C G128I	Criterion met
C134H	Criterion met
V82F	Criterion not met
N83M	Criterion not met
G36Y	Criterion met

--- query ---
Please check the record N83I and state if its sfGFP reporter fluorescence is at or above 0.07.
Criterion not met

Provenance of the data: the supplement of paper PMC12783771
